Just for reference, the array DNA melting data of Ke et al. (doi:10.1101/2024.01.08.574731) is where these values come from.

# test summary: folding enthalpy; higher = less favourable; fluorescence melt of hairpins on a sequencing array, two-state fit
# protocol conditions: sodium 0.088 M

primary sequence | folding enthalpy / kcal/mol
GGAAGACCGAAAGGTTCC (((..(((....)))))) | -16
GGCCTCCGAAAGGACGCC (((.(((....))).))) | -37.2
GAACAGGGAAACTTGTTC (((((.(....).))))) | -27.2
GGTTGTCCGAAAGGAACC (((..(((....)))))) | -14.5
GCGAACGAAAGTTGGCGC ((((((....)))..))) | -32.8
GGAAACGAAAGTTCTTCC ((((((....)))..))) | -14.9

---

# test summary: folding enthalpy; higher = less favourable; fluorescence melt of hairpins on a sequencing array, two-state fit
# protocol conditions: sodium 0.088 M
parameter measured: folding enthalpy (kcal/mol)

primary sequence | result
GGTTATGAAAATAACC ((((((....)))))) | -31.8
GAGCTGCGAAAGCATCTC (((.(((....))).))) | -29.4
GTAGACCGAAAGGTTTAC (((.(((....))).))) | -27.9
GTCTGCGGAAACGCAGGC (.(((((....))))).) | -19.6
GGGTTGGGAAACTGACCC ((((..(....)..)))) | -26.5
GTTACCGAAAGGTAAAAC ((((((....)))..))) | -13.2
GATCGGGAAGCCGATC ((((((....)))))) | -37.9
GGTACTCGAAAGAGGACC (((.(((....))).))) | -42.7
GTTGTCGGAAACGATAAC (((.(((....))).))) | -34.6
GCCAAGAAATTGGC (((((....))))) | -21.6
GTTAGGGAAACCTAAC ((((((....)))))) | -30.8
GATCGGGCCCCCGATC ((((((....)))))) | -43.2
GATTGCGCGAAAGCGATC (((..(((....)))))) | -9.1
GCCGTGCGAAAGCGCAGC ((.(.((....)).).)) | -13
GCTGCCGAAAGGCGGAGC ((((((....)))..))) | -12.6
GAACGCGGAAACGCACTC ((..(((....)))..)) | -8.19
CGCGGAGCGTCCGCG ((((((...)))))) | -7.62
GATCACATTGGTGATC ((((((....)))))) | -40.1
GATCTCCGAGAGATC ((((((...)))))) | -35.2
GATGAGGGAAACTTCATC (((((.(....).))))) | -25
GCACCGCGAAAGCCATGC (((..((....))..))) | -9.79
GCTTTAACGAAAGTTAGC (((..(((....)))))) | -18.8
GAGATGCGAAAGCACCTC (((.(((....))).))) | -23.9
GACGACGAAAGTCTAGTC ((((((....)))..))) | -23.8
GTTTAAGCGAAAGCTAAC (((..(((....)))))) | -11.8

---

# test summary: melting temperature; fluorescence melt of hairpins on a sequencing array, two-state fit, raised by 9.35 °C to match UV melts
# protocol conditions: sodium 0.088 M
Each record here notes measured Tm.

primary sequence | Tm [°C]
GCGGGGCGAAAGCCATGC ((..(((....)))..)) | 62.4
GTATGCGAAAGCACGTAC ((((((....)))..))) | 34.1
GTCCGTGGAAACATGGGC (.((.((....)).)).) | 44.9
GATCGACATATCGATC ((((((....)))))) | 51.7
GATCTGCGGCCAGATC ((((((....)))))) | 48.6
GCTCAGCGAAAGCTGTGC ((.((((....)))).)) | 64.2
GAAATGCGAAAGCAATTC (((.(((....))).))) | 45.3
GATCTACCTGTAGATC ((((((....)))))) | 52.8
GAAAACACGAAAGTGTTC (((..(((....)))))) | 35.9
GATCACTGGGGTGATC ((((((....)))))) | 58.3
GGTCTGCGAAAGCACACC (((.(((....))).))) | 42.1

---

The entries below are paired with their reported Tm.
# test summary: melting temperature; fluorescence melt of hairpins on a sequencing array, two-state fit, raised by 9.35 °C to match UV melts
# protocol conditions: sodium 0.088 M
parameter measured: Tm

primary sequence | result
GCTTTGCGAAAGCAACGC ((.((((....)))).)) | 55.9 °C
GATCTGAGAGCAGATC ((((((....)))))) | 46.1 °C
GATCATAGGCATGATC ((((((....)))))) | 48.5 °C
GAACGCGGAAACGCACTC ((..(((....)))..)) | 30.1 °C
GAGATCACGAAAGTGCTC (((..(((....)))))) | 29.9 °C
GATCCGGGGTCGGATC ((((((....)))))) | 56.7 °C
GGTAAAGAAATTTACC ((((((....)))))) | 40.1 °C
GGCGTAGGAAACTGTGCC (((..((....))..))) | 39.4 °C
GGGTTCGGAAACGAGCCC (((.(((....))).))) | 58.1 °C
GCACTCGCGAAAGCGTGC (((..(((....)))))) | 50.5 °C
GCGGTTGCCGC ((((...)))) | 56.6 °C
GTTCTGAAAAGAAC (((((....))))) | 47 °C
GAGTTGGGAAACTAGCTC (((.(.(....).).))) | 29 °C
GCATGGCGAAAGCAATGC ((((.((....)).)))) | 64.8 °C
GGGTTCCCGAAAGGGCCC (((..(((....)))))) | 47.7 °C
GGTTGGGGAAACCCGATC (.(.(((....))).).) | 34.4 °C
CTTCCGAAAGGAAG (((((....))))) | 55.8 °C
GTGACTACGAAAGTACAC (((..(((....)))))) | 29.3 °C
GGATCCGAAAGGAACTCC ((((((....)))..))) | 34.7 °C
GATCGCACCGCGATC ((((((...)))))) | 69 °C
GGTCCTCGAAAGAGACC (((.(((....)))))) | 48.1 °C
GGTCACCGAAAGGTAACC (((.(((....))).))) | 48.4 °C
GTGTTGCGAAAGCACCAC (((.(((....))).))) | 51.2 °C
GCTGTCGAAAGACAAGC ((((((....))).))) | 54.4 °C
GCGTAAGGAAACTTACAC (.(((((....))))).) | 33.4 °C
GACTACGAAAGTATGGTC ((((((....)))..))) | 34.4 °C

---

Attribute: Tm
# test summary: melting temperature; fluorescence melt of hairpins on a sequencing array, two-state fit, raised by 9.35 °C to match UV melts
# protocol conditions: sodium 0.088 M
parameter measured: Tm (°C)

primary sequence | result
GCTTCGCGAAAGCTAAGC ((((.((....)).)))) | 57.2
GTGGCGGGAAACTGCCGC (.(((.(....).))).) | 53.5
GCTAACCGAAAGGTGAGC (((.(((....))).))) | 59.7
GATCGTACTTACGATC ((((((....)))))) | 55.3
GCGGCAGGAAACCGCCGC (((((.(....).))))) | 69.3
GCTTCGCGAAAGCTGAGC (((..((....))..))) | 45.5

---

# test summary: melting temperature; fluorescence melt of hairpins on a sequencing array, two-state fit, raised by 9.35 °C to match UV melts
# protocol conditions: sodium 0.088 M
Listed sequences paired with reported Tm
parameter measured: Tm (°C)

primary sequence | result
GCGATCGCTCGC ((((....)))) | 49.6
GCTGGATCGAAAGATAGC (((..(((....)))))) | 30.8
GTGCATGCGAAAGCACAC (((..(((....)))))) | 46.3
GTTTTCGGAAACGGAAAC ((((.((....)).)))) | 47.1
GGCCAGCCGAAAGGCGCC (((..(((....)))))) | 55.1
GATCACGCTGTGATC ((((((...)))))) | 59.2
GTTATCGGAAACGATGAC ((.((((....)))).)) | 47.1
GCGTCGACACGC ((((....)))) | 51.7
GTCCATGGAAACGTGGAC (((((.(....).))))) | 52.9
GGTAACCGAAAGGTCACC (((.(((....))).))) | 48.2
GGCAAAGGAAACTTTGCC (((((((....))))))) | 62.7
CTCCGGAAACGGAG (((((....))))) | 55.1
